- assayDetails: Metabolic stability in cynomolgous monkey liver microsomes assessed as clearance at 0.3 uM preincubated for 5 mins followed by NADPH addition measured upto 60 mins by LC-MS/MS analysis
- Type: ADME, Macaca fascicularis, Microsome
- conditionInfo: cynomolgus monkey, read-out: CLH
measuredEndpoint: microsomal CLint at 0.3 µM (µL/min/mg)
# unit: µL/min/mg | format: bare number

Endpoint output: microsomal CLint at 0.3 µM of COc1cc(OC(F)F)c2nc3c(n2c1)C[C@@H](C(C)(C)C)c1cc(C(=O)O)c(=O)[nH]c1-3 . Value?
2

Give its microsomal CLint at 0.3 µM value. Item: CC(C)(C)[C@@H]1Cc2c(nc3c(C(F)(F)F)cc(C4CC4)cn23)-c2[nH]c(=O)c(C(=O)O)cc21
4

// lookup microsomal CLint at 0.3 µM for COCCCOc1cc2c(nc1OC)-c1cc(=O)c(C(=O)O)cn1[C@H](C(C)C)C2
5

----------
- assayDetails: Drug concentration in Sprague-Dawley rat heart at 5 mg/kg, po measured for 24 hrs by LC-MS/MS analysis
- Format: ADME, organism-based
- conditionInfo: Sprague-Dawley, heart, read-out: Ct
measuredEndpoint: concentration at 24 h (ng/g)
Record the value in ng/g, omitting the unit from your answer.

Which value of concentration at 24 h has been reported for CC(C)(C)[C@@H]1Cc2c(nc3c(C(F)(F)F)cc(C4CC4)cn23)-c2[nH]c(=O)c(C(=O)O)cc21 in the records?
1.3

----------
- assayedTarget: CYP3A4 (Homo sapiens)
- Sequence (P08684 whole entry): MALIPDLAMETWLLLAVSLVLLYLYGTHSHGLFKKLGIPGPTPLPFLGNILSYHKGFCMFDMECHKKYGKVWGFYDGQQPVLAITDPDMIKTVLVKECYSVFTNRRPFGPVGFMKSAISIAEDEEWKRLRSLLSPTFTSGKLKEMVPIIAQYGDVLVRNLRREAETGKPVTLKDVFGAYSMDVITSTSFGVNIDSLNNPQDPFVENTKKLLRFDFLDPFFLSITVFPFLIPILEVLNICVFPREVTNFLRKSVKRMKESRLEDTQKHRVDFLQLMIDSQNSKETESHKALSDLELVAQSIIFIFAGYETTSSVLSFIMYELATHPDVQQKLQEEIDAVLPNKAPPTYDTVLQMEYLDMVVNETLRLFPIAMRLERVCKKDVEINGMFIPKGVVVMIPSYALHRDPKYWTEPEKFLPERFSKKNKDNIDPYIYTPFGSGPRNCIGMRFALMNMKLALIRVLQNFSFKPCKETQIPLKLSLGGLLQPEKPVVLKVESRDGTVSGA
- assayDetails: Inhibition of CYP3A4 in human liver microsomes using midazolam as substrate preincubated for 30 min followed by NADPH addition measured after 12 mins by LC-MS/MS analysis
- Format: ADME, Microsome
- conditionInfo: human, liver microsomes, probe midazolam
measuredEndpoint: IC50 at 12 min

# IC50 at 12 min lookup, item COCCCOc1cc2c(nc1OC)-c1cc(=O)c(C(=O)O)cn1[C@H](C(C)C)C2
> 25 µM

----------
- assayDetails: Plasma protein binding in human assessed as unbound fraction at 2 uM incubated for 6 hrs by equilibrium dialysis
- Type: ADME, cell-free
measuredEndpoint: fraction unbound at 6 h, 2 µM
# respond with the number and nothing more

# get_value(readout='fraction unbound at 6 h, 2 µM', item= COc1cc(OC(F)F)c2nc3c(n2c1)C[C@@H](C(C)(C)C)c1cc(C(=O)O)c(=O)[nH]c1-3 )
0.05

Param item = CC(C)(C)[C@@H]1Cc2c(nc3c(C(F)(F)F)cc(C4CC4)cn23)-c2[nH]c(=O)c(C(=O)O)cc21 ; retrieve measured fraction unbound at 6 h, 2 µM.
0.05

Which fraction unbound at 6 h, 2 µM reading was recorded for the compound COCCCOc1cc2c(nc1OC)-c1cc(=O)c(C(=O)O)cn1[C@H](C(C)C)C2 ?
0.55

----------
- assayDetails: Oral bioavailability in Sprague-Dawley rat at 10 mg/kg measured for 24 hrs by LC-MS/MS analysis
- Format: ADME, organism-based
- conditionInfo: in vivo
measuredEndpoint: bioavailability (%)
The figure you give is taken to be in %; do not add the unit.

Query (compound): COCCCOc1cc2c(nc1OC)-c1cc(=O)c(C(=O)O)cn1[C@H](C(C)C)C2 ; field requested: bioavailability
80

----------
- assayDetails: Ratio of drug concentration in liver to plasma of CD-1 mouse at 10 mg/kg, po measured for 24 hrs by LC-MS/MS analysis
- Assay type: ADME, organism-based
- conditionInfo: liver and plasma
measuredEndpoint: Kp at 24 h
Returns: the value as a bare number; no unit string appended.

Looking for the measured Kp at 24 h of CC(C)(C)[C@@H]1Cc2c(nc3c(C(F)(F)F)cc(C4CC4)cn23)-c2[nH]c(=O)c(C(=O)O)cc21 , can you help?
67

Which Kp at 24 h value belongs to COc1cc(OC(F)F)c2nc3c(n2c1)C[C@@H](C(C)(C)C)c1cc(C(=O)O)c(=O)[nH]c1-3 ?
184

Suppose we examine the compound COCCCOc1cc2c(nc1OC)-c1cc(=O)c(C(=O)O)cn1[C@H](C(C)C)C2 ; what Kp at 24 h value has been reported?
3
